Below is a list of entries, each paired with its recorded bioavailability value.
- Method Summary: Oral bioavailability in rat plasma at 10 mg/kg
- Format: ADME, organism-based

> print(dat)
                              sample.smiles   endpoint.label  test.value
1  COc1ccc(S(=O)(=O)N2C(=O)[C@@](c3ccccc3OC)(N3C[C@H](O)C[C@H]3C(=O)N(C)C)c3cc(Cl)ccc32)c(OC)c1  bioavailability         12%

Let us examine a further case.
Give bioavailability for the following compound: CNCc1ccc(OC)c([C@@]2(N3CCC[C@H]3c3ncco3)C(=O)N(S(=O)(=O)c3ccc(OC)cc3)c3ccc(Cl)cc32)c1 68%

----------
- Method Summary: Intrinsic clearance in rat liver microsomes measured up to 40 mins by HPLC-MS method
- Assay type: ADME, Microsome
Measured microsomal CLint determines class: low interval (below 100 µL/min/mg), middle interval (100 µL/min/mg to below 400 µL/min/mg), high interval (400 µL/min/mg or more)

For COc1ccc(S(=O)(=O)N2C(=O)[C@@](c3cnc(OC)nc3OC)(N3C[C@H](O)C[C@H]3C(=O)N(C)C)c3cc(Cl)ccc32)c(OC)c1 , which microsomal CLint bin applies? middle interval

For COc1ccc(S(=O)(=O)N2C(=O)[C@@](c3cccnc3OC)(N3CCCC3c3nccs3)c3cc(Cl)ccc32)c(OC)c1 (mixture of isomers) , which microsomal CLint bin applies? high interval

For COc1ccc(S(=O)(=O)N2C(=O)[C@@](c3ccc(CN4CCCC4)cc3OC)(N3CCC[C@H]3C(=O)N(C)C)c3cc(Cl)ccc32)cc1 , which microsomal CLint bin applies? middle interval

For COc1ccc(S(=O)(=O)N2C(=O)[C@@](c3ccc(CN4CCCC4)cc3OC)(N3CCC[C@H]3C(=O)N(C)C)c3cc(Cl)ccc32)c(OC)c1 , which microsomal CLint bin applies? middle interval

For COc1ccc(S(=O)(=O)N2C(=O)[C@@](c3cc(CN4CCCC4)ccc3OC)(N3CCC[C@H]3c3ncco3)c3cc(Cl)ccc32)cc1 , which microsomal CLint bin applies? middle interval

For COc1ccc(S(=O)(=O)N2C(=O)[C@@](c3ccc(CN4CCN(C)CC4)cc3OC)(N3CCC[C@H]3C(=O)N(C)C)c3cc(Cl)ccc32)cc1 , which microsomal CLint bin applies? low interval

For COc1ccc(S(=O)(=O)N2C(=O)[C@@](c3cccnc3OC)(N3C[C@H](O)C[C@H]3C(=O)N(C)C)c3cc(Cl)ccc32)c(OC)c1 , which microsomal CLint bin applies? high interval

----------
- Method Summary: Intrinsic clearance in human liver microsomes measured up to 40 mins by HPLC-MS method
- Format: ADME, Microsome
Endpoint Label: microsomal CLint (µL/min/mg)
Number only, in µL/min/mg; omit the unit.

> print(dat)
                                    compound    endpoint.label  test.value
 1  COc1ccc(S(=O)(=O)N2C(=O)[C@@](c3ccc(CN4CCCC4)cc3OC)(N3CCC[C@H]3C(=O)N(C)C)c3cc(Cl)ccc32)c(OC)c1  microsomal CLint         155
 2  COc1ccc(S(=O)(=O)N2C(=O)[C@@](c3nccnc3OC)(N3C[C@H](O)C[C@H]3C(=O)N(C)C)c3cc(Cl)ccc32)c(OC)c1  microsomal CLint         302
 3  COc1ccc(S(=O)(=O)N2C(=O)[C@@](c3cccnc3OC)(N3C[C@H](O)C[C@H]3C(=O)N(C)C)c3cc(Cl)ccc32)c(OC)c1  microsomal CLint         323
 4  COc1ccc(S(=O)(=O)N2C(=O)[C@@](c3ccccc3OC)(N3C[C@H](O)C[C@H]3C(=O)N(C)C)c3cc(Cl)ccc32)c(OC)c1  microsomal CLint         343
 5  COc1ccc(S(=O)(=O)N2C(=O)[C@@](c3ccc(CN4CCCC4)cc3OC)(N3CCC[C@H]3C(=O)N(C)C)c3cc(Cl)ccc32)cc1  microsomal CLint         127
 6  COc1ccc(S(=O)(=O)N2C(=O)[C@@](c3cc(CN4CCCC4)ccc3OC)(N3CCC[C@H]3c3ncco3)c3cc(Cl)ccc32)cc1  microsomal CLint          80
 7  COc1ccc(S(=O)(=O)N2C(=O)[C@@](c3cccnc3OC)(N3CCC[C@H]3c3ncco3)c3cc(Cl)ccc32)cc1  microsomal CLint          75
 8  COc1ccc(S(=O)(=O)N2C(=O)[C@@](c3cccnc3OC)(N3CCCC3c3nccs3)c3cc(Cl)ccc32)c(OC)c1 (mixture of isomers)  microsomal CLint         373
 9  COc1ccc(S(=O)(=O)N2C(=O)[C@@](c3cc(CN(C)C)ccc3OC)(N3CCC[C@H]3c3ncco3)c3cc(Cl)ccc32)cc1  microsomal CLint         204
10  COc1ccc(S(=O)(=O)N2C(=O)[C@@](c3ccc(CN4CCN(C)CC4)cc3OC)(N3CCC[C@H]3C(=O)N(C)C)c3cc(Cl)ccc32)cc1  microsomal CLint         378

Give microsomal CLint for the following compound: COc1ccc(S(=O)(=O)N2C(=O)[C@@](c3cccnc3OC)(N3CCC[C@H]3C(=O)N(C)C)c3cc(Cl)ccc32)c(OC)c1 359

Give microsomal CLint for the following compound: COc1ccc(S(=O)(=O)N2C(=O)[C@@](c3cccnc3OC)(N3CCCC3c3ccccn3)c3cc(Cl)ccc32)c(OC)c1 (mixture of isomers) 183

Give microsomal CLint for the following compound: COc1ccc(S(=O)(=O)N2C(=O)[C@@](c3cc(CN4CCCC4)ccc3OC)(N3CCC[C@H]3C(=O)N(C)C)c3cc(Cl)ccc32)cc1 506

----------
Entries below carry reported pKi on UniProt:P47901.
Sequence (P47901 whole entry): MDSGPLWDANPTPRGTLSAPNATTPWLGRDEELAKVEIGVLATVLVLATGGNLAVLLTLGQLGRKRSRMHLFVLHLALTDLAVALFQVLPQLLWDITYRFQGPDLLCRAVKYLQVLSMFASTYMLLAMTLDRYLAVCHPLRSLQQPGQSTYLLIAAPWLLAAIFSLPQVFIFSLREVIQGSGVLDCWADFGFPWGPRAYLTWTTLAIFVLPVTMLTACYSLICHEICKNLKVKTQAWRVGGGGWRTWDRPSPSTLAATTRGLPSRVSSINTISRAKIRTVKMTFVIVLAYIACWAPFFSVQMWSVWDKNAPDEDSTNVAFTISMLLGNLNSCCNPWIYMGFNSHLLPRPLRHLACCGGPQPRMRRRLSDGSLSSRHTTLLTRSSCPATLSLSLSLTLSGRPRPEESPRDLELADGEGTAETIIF
FYI, pKi means -log10 of a concentration in mol per litre.

Below, each entry is followed by its recorded pKi result.
> print(dat)
                                   molecule  endpoint.label  test.value
1  COc1ccc(S(=O)(=O)N2C(=O)[C@@](c3cc(CN4CCCC4)ccc3OC)(N3CCC[C@H]3C(=O)N(C)C)c3cc(Cl)ccc32)cc1             pKi       10.52
2  COc1ccc(S(=O)(=O)N2C(=O)[C@@](c3cccnc3OC)(N3CCCC3c3ncco3)c3cc(Cl)ccc32)c(OC)c1 (mixture of isomers)             pKi        7.00

Give pKi for the following molecule: COc1ccc(S(=O)(=O)N2C(=O)[C@@](c3cccnc3OC)(N3C[C@H](O)C[C@H]3C(=O)N(C)C)c3cc(Cl)ccc32)c(OC)c1 8.89

Give pKi for the following molecule: COc1ccc(S(=O)(=O)N2C(=O)[C@@](c3ccc(CN4CCCC4)cc3OC)(N3CCC[C@H]3C(=O)N(C)C)c3cc(Cl)ccc32)cc1 10.10

----------
Entries below carry reported Ki on Vasopressin V2 receptor (Homo sapiens, UniProt P30518).
Sequence (P30518 whole entry): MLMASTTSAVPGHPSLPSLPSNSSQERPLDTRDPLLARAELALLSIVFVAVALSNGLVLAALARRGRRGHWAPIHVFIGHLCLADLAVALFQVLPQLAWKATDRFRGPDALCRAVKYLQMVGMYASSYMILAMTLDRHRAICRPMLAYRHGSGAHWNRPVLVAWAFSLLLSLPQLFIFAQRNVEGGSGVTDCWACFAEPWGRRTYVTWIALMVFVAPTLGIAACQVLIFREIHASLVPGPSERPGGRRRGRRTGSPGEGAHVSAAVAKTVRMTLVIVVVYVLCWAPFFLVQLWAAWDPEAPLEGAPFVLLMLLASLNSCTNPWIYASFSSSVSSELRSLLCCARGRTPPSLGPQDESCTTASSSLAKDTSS

Below, each entry is followed by its recorded Ki result.
> print(dat)
                              sample.smiles                               measured.on  endpoint.label  test.value
1  COc1ccc(S(=O)(=O)N2C(=O)[C@@](c3ccc(CN4CCCC4)cc3OC)(N3CCC[C@H]3C(=O)N(C)C)c3cc(Cl)ccc32)cc1  Vasopressin V2 receptor (Homo sapiens, UniProt P30518)              Ki   > 1000 nM
2  CNCc1ccc(OC)c([C@@]2(N3CCC[C@H]3c3ncco3)C(=O)N(S(=O)(=O)c3ccc(OC)cc3)c3ccc(Cl)cc32)c1  Vasopressin V2 receptor (Homo sapiens, UniProt P30518)              Ki   > 1000 nM

Jot down Ki (Vasopressin V2 receptor (Homo sapiens, UniProt P30518)) of COc1ccc(S(=O)(=O)N2C(=O)[C@@](c3cnc(OC)nc3OC)(N3C[C@H](O)C[C@H]3C(=O)N(C)C)c3cc(Cl)ccc32)c(OC)c1 . 636 nM

----------
- Method Summary: Intrinsic clearance in rat liver microsomes measured up to 40 mins by HPLC-MS method
- Format: ADME, Microsome
Endpoint Label: log10 of microsomal CLint (log10 of the value in µL/min/mg)
log10 microsomal CLint, µL/min/mg

Below, each entry is followed by its recorded log10 of microsomal CLint result.
> print(dat)
                                    compound  test.value
 1  COc1ccc(S(=O)(=O)N2C(=O)[C@@](c3cc(CN4CCN(C)CC4)ccc3OC)(N3CCC[C@H]3c3ncco3)c3cc(Cl)ccc32)cc1        1.75
 2  COc1ccc(S(=O)(=O)N2C(=O)[C@@](c3cc(CN4CCCC4)ccc3OC)(N3CCC[C@H]3C(=O)N(C)C)c3cc(Cl)ccc32)c(OC)c1        2.17
 3  COc1ccc(S(=O)(=O)N2C(=O)[C@@](c3ccccc3OC)(N3C[C@H](O)C[C@H]3C(=O)N(C)C)c3cc(Cl)ccc32)c(OC)c1        2.64
 4  COc1ccc(S(=O)(=O)N2C(=O)[C@@](c3cccnc3OC)(N3CCCC3c3ccccn3)c3cc(Cl)ccc32)c(OC)c1 (mixture of isomers)        2.85
 5  COc1ccc(S(=O)(=O)N2C(=O)[C@@](c3cccnc3OC)(N3CCC[C@H]3C(=O)N(C)C)c3cc(Cl)ccc32)c(OC)c1        2.65
 6  COc1ccc(S(=O)(=O)N2C(=O)[C@@](c3cc(CN4CCCC4)ccc3OC)(N3CCC[C@H]3C(=O)N(C)C)c3cc(Cl)ccc32)cc1        2.00
 7  COc1ccc(S(=O)(=O)N2C(=O)[C@@](c3cnccc3OC)(N3C[C@H](O)C[C@H]3C(=O)N(C)C)c3cc(Cl)ccc32)c(OC)c1        2.62
 8  COc1ccc(S(=O)(=O)N2C(=O)[C@@](c3nccnc3OC)(N3C[C@H](O)C[C@H]3C(=O)N(C)C)c3cc(Cl)ccc32)c(OC)c1        3.01
 9  COc1ccc(S(=O)(=O)N2C(=O)[C@@](c3cccnc3OC)(N3CCC[C@H]3c3ncco3)c3cc(Cl)ccc32)cc1        2.55
10  COc1ccc(S(=O)(=O)N2C(=O)[C@@](c3cc(CN4CCN(C)CC4)ccc3OC)(N3CCC[C@H]3C(=O)N(C)C)c3cc(Cl)ccc32)cc1        1.89

Give log10 of microsomal CLint for the following compound: COc1ccc(S(=O)(=O)N2C(=O)[C@@](c3cc(CN(C)C)ccc3OC)(N3CCC[C@H]3c3ncco3)c3cc(Cl)ccc32)cc1 2.34

Give log10 of microsomal CLint for the following compound: CNCc1ccc(OC)c([C@@]2(N3CCC[C@H]3c3ncco3)C(=O)N(S(=O)(=O)c3ccc(OC)cc3)c3ccc(Cl)cc32)c1 1.79
